Reported melting point by item:

State its melting point for this molecule: Cc1cnc(NCCc2ccccc2)c(=O)n1CC(=O)NCc1ccc2[nH]cc(Cl)c2c1
223 to 226 °C

Return melting point (reported value) for this molecule: Cc1cnc(NCC2(c3ccccn3)CC2)c(=O)n1CC(=O)NCc1ccc2[nH]ccc2c1
212 to 215 °C

Let me know recorded melting point for Cc1cnc(NCC2(c3ccccn3)CC2)c(=O)n1CC(=O)NCc1ccc2[nH]cnc2c1 , thanks.
134 to 139 °C

Input Cc1cc2[nH]cnc2cc1CNC(=O)Cn1c(C)cnc(NCC2(c3ccccn3)CC2)c1=O , output reported melting point.
146 to 154 °C

Specify reported melting point for the molecule shown: Cc1cnc(NCCc2ccccn2)c(=O)n1CC(=O)NCc1ccc2[nH]cc(Cl)c2c1
224 to 226 °C

# context switch: different molecule, same melting point
Using the record for Cc1cc2[nH]cnc2cc1CNC(=O)Cn1c(C)cnc(NCCc2ccccn2)c1=O , state its measured melting point.
175 to 184 °C

###

Target: human α-thrombin (Homo sapiens)
Assay: In vitro assay for determining proteinase inhibition: thrombin (sar-PR-pna or Z-GPR-afc substrate)
Assay type: biochemical
Details: Table 1; 25° C., 0.05 M TRIS buffer pH 7.4, 0.15 M NaCl, 0.1% PEG; read-out: Inhibitory activity (Ki)
pKi: −log10 of the molar value.
Measured pKi by item

State pKi on human α-thrombin (Homo sapiens). Entry: Cc1nc2[nH]nnc2cc1CNC(=O)Cn1c(C)cnc(NCCc2ccccc2)c1=O
< 7.70

Continuing:
Would you please give the reported pKi of Cc1cnc(NCCc2ccccc2)c(=O)n1CC(=O)NCc1cnc2[nH]nc(N)c2c1 with human α-thrombin (Homo sapiens)?
< 7.70

Under human α-thrombin (Homo sapiens), report pKi for Cc1cnc(NCC(F)(F)c2ccccc2)c(=O)n1CC(=O)NCc1cnc2[nH]cnc2c1
> 7.70

Fill in pKi for Cc1cc2c(c(=O)n1CC(=O)NCc1ccc3[nH]ccc3n1)NC(=O)[C@H](CC(C)C)C2 tested with human α-thrombin (Homo sapiens).
> 7.70

Fill in: pKi on human α-thrombin (Homo sapiens), entry Cc1cnc(NCC2(c3ccccn3)CC2)c(=O)n1CC(=O)NCc1ccc2[nH]ccc2c1 [drawing 16]
> 7.70

Please respond with reported pKi (system human α-thrombin (Homo sapiens)) for Cc1cnc(NCCc2ccccn2)c(=O)n1CC(=O)NCc1ccc2[nH]ncc2c1 .
> 7.70

###

Molecular target: human α-thrombin (Homo sapiens)
Test: In vitro assay for determining proteinase inhibition: thrombin (sar-PR-pna or Z-GPR-afc substrate)
Format: biochemical
Conditions: Table 1; 25° C., 0.05 M TRIS buffer pH 7.4, 0.15 M NaCl, 0.1% PEG; read-out: Inhibitory activity (Ki)
reportedProperty: Ki

Output reported Ki of the molecule Cc1cnc(NCCc2ccccn2)c(=O)n1CC(=O)NCc1ccc2c(cnn2C)c1 on human α-thrombin (Homo sapiens).
> 20 nM

Report value: Ki, system: human α-thrombin (Homo sapiens), molecule: Cc1cnc(NCCc2ccc3c(c2)OCO3)c(=O)n1CC(=O)NCc1ccc2[nH]ncc2c1
< 20 nM

Write down measured Ki (human α-thrombin (Homo sapiens)) for this molecule. Cc1cc(SCC2CC2)c(N)c(=O)n1CC(=O)NCc1cnc2[nH]cnc2c1
> 20 nM

Consider the molecule Cc1cnc(NCCc2ccccc2)c(=O)n1CC(=O)NCc1ccc2c(cnn2C)c1 tested on human α-thrombin (Homo sapiens); state its Ki.
> 20 nM

Specify the recorded Ki for Cc1cnc(NCC(F)(F)c2ccccc2)c(=O)n1CC(=O)NCc1cc2cc[nH]c2cn1 , system: human α-thrombin (Homo sapiens).
< 20 nM

Provide human α-thrombin (Homo sapiens) Ki reading for Cc1cnc(NCC(F)(F)c2ccccn2)c(=O)n1CC(=O)NCc1cc2cc[nH]c2cn1 .
< 20 nM

Provide measured Ki on human α-thrombin (Homo sapiens) for Cc1cnc(NCCc2ccccn2)c(=O)n1CC(=O)NCc1cc2c(Cl)c[nH]c2cn1 please.
< 20 nM

# lookup: human α-thrombin (Homo sapiens) Ki, key = Cc1cnc(NCCc2ccccc2)c(=O)n1CC(=O)NCc1cc2nc[nH]c2cn1
> 20 nM

---
With human α-thrombin (Homo sapiens) as the test system, provide measured Ki for this molecule: Cc1cnc(NCCCCC2CC2)c(=O)n1CC(=O)NCc1cc2cc[nH]c2cn1
< 20 nM

Report its Ki with human α-thrombin (Homo sapiens) as the test system: Cc1cnc(NCC2(c3ccccn3)CC2)c(=O)n1CC(=O)NCc1ccc2[nH]cnc2c1 [drawing 18]
< 20 nM

// fetch Ki for Cc1cnc(NCCc2ccccc2)c(=O)n1CC(=O)NCc1ccc2[nH]nnc2c1 ; system: human α-thrombin (Homo sapiens)
> 20 nM

GET Ki where system = human α-thrombin (Homo sapiens) and item = Cc1cnc(NCC(F)(F)c2ccccn2)c(=O)n1CC(=O)NCc1ccc2[nH]ccc2c1
< 20 nM

Tell me Ki of Cc1cc2c(c(=O)n1CC(=O)NCc1cnc3[nH]ccc3c1)NC(=O)[C@H](CC1CCC1)C2 when tested on human α-thrombin (Homo sapiens).
< 20 nM

# return Ki for Cc1cc(SCC2CCC2)c(N)c(=O)n1CC(=O)NCc1ccc2[nH]cnc2c1 , test system: human α-thrombin (Homo sapiens)
< 20 nM

Give human α-thrombin (Homo sapiens) Ki for the following molecule: Cc1cnc(NCCc2cccnc2)c(=O)n1CC(=O)NCc1ccc2[nH]ccc2c1
< 20 nM

For human α-thrombin (Homo sapiens), give the measured Ki of the entry Cc1cnc(NCC(F)(F)c2ccccc2)c(=O)n1CC(=O)NCc1ccc2[nH]nc(N)c2c1
< 20 nM

Please respond with reported Ki (system human α-thrombin (Homo sapiens)) for Cc1cc(SCC2CCC2)c(N)c(=O)n1CC(=O)NCc1cnc2[nH]cnc2c1 .
> 20 nM

###

Target: human α-thrombin (Homo sapiens, UniProt P00734)
Experiment: In vitro assay for determining proteinase inhibition: thrombin (sar-PR-pna or Z-GPR-afc substrate)
Type: biochemical
Conditions: Table 1; 25° C., 0.05 M TRIS buffer pH 7.4, 0.15 M NaCl, 0.1% PEG; read-out: Inhibitory activity (Ki)
Experimental: In vitro Assay for Determining Proteinase Inhibition The assays were carried out at 25° C. in 0.05 M TRIS buffer pH 7.4, 0.15 M NaCl, 0.1% PEG. Trypsin assays also contained 1 mM CaCl2. Concentrations of stock solutions of Z-GPR-afc were determined from measurements of absorbance at 380 nm of the 7-amino-4-trifluoromethyl coumarin produced upon complete hydrolysis of an aliquot of the stock solution by thrombin. […]
Measured Ki values are reported for all entries that follow.

Kindly indicate its recorded Ki. Item: Cc1cc2c(c(=O)n1CC(=O)NCc1ccc3[nH]ncc3c1)NC(=O)[C@H](CC1CCC1)C2
< 20 nM

Others:
# return recorded Ki for entry Cc1cnc(NCC(F)(F)c2ccccn2)c(=O)n1CC(=O)NCc1cnc2[nH]cnc2c1
< 20 nM

Identify the reported Ki for the following entry. Cc1cc2c(c(=O)n1CC(=O)NCc1ccc3[nH]ccc3n1)NC(=O)[C@H](CC1CCC1)C2
< 20 nM

Provide one value: measured Ki of Cc1cc2c(c(=O)n1CC(=O)NCc1ccc3[nH]ccc3n1)NC(=O)[C@H](CC1CC1)C2
< 20 nM

For the molecule Cc1nc2cc(CNC(=O)Cn3c(C)cnc(NCC(F)(F)c4ccccc4)c3=O)ccc2[nH]1 , give its measured Ki value.
> 20 nM

For the molecule Cc1c(CNC(=O)Cn2c(C)cnc(NCCc3ccccc3)c2=O)cnc2[nH]ccc12 , give its reported Ki.
> 20 nM

###

Property: Ki; scope: individual molecules
Molecular target: UniProt P00734
Test: In vitro assay for determining proteinase inhibition: thrombin (sar-PR-pna or Z-GPR-afc substrate)
Assay type: biochemical
Settings: Table 1; 25° C., 0.05 M TRIS buffer pH 7.4, 0.15 M NaCl, 0.1% PEG; read-out: Inhibitory activity (Ki)

Examples with their reported Ki follow.
Quick one: give measured Ki for Cc1cnc(NCCc2ccccc2)c(=O)n1CC(=O)NCc1ccc2[nH]nc(N)c2c1
> 20 nM

Answer with the recorded Ki for the molecule listed here: Cc1cnc(NCCc2ccc3c(c2)OCO3)c(=O)n1CC(=O)NCc1ccc2[nH]ccc2c1
< 20 nM

Please find the next molecule below.
Output Ki of Cc1cc(SCC2CCC2)c(N)c(=O)n1CC(=O)NCc1ccc2[nH]nc(N)c2c1
> 20 nM

###

Molecular target: human α-thrombin (Homo sapiens)
Assay: In vitro assay for determining proteinase inhibition: thrombin (sar-PR-pna or Z-GPR-afc substrate)
Type: biochemical
Conditions: Table 1; 25° C., 0.05 M TRIS buffer pH 7.4, 0.15 M NaCl, 0.1% PEG; read-out: Inhibitory activity (Ki)
Experimental: In vitro Assay for Determining Proteinase Inhibition The assays were carried out at 25° C. in 0.05 M TRIS buffer pH 7.4, 0.15 M NaCl, 0.1% PEG. Trypsin assays also contained 1 mM CaCl2. Concentrations of stock solutions of Z-GPR-afc were determined from measurements of absorbance at 380 nm of the 7-amino-4-trifluoromethyl coumarin produced upon complete hydrolysis of an aliquot of the stock solution by thrombin. […]
reportedProperty: Ki

# example entries with known answers
State the measured Ki (human α-thrombin (Homo sapiens)) of Cc1cnc(NCCc2ccccc2)c(=O)n1CC(=O)NCc1ccc2[nH]cc(Cl)c2c1 [drawing 39]
< 20 nM

Give reported Ki for Cc1cc2c(c(=O)n1CC(=O)NCc1ccc3[nH]ccc3c1)NC(=O)[C@H](CC1CCC1)C2 (human α-thrombin (Homo sapiens))
< 20 nM

Answer with Ki of CCC[C@@H]1Cc2cc(C)n(CC(=O)NCc3ccc4[nH]ccc4c3)c(=O)c2NC1=O measured for human α-thrombin (Homo sapiens).
< 20 nM

Give measured Ki for Cc1cnc(NCCc2ccccc2)c(=O)n1CC(=O)NCc1cnc2[nH]cnc2c1 (human α-thrombin (Homo sapiens)).
> 20 nM

Recall the reported Ki of Cc1cnc(NCCc2ccccn2)c(=O)n1CC(=O)NCc1ccc2[nH]cc(Cl)c2c1 [drawing 38] on human α-thrombin (Homo sapiens) and write it down.
< 20 nM

Please report the measured Ki for Cc1cc2c(c(=O)n1CC(=O)NCc1cc3cc[nH]c3cn1)NC(=O)[C@H](CC1CCC1)C2 tested on human α-thrombin (Homo sapiens).
< 20 nM

Look up and report Ki, with human α-thrombin (Homo sapiens) as system, for Cc1cnc(NCC(F)(F)c2ccccn2)c(=O)n1CC(=O)NCc1ccc2[nH]cnc2c1
< 20 nM

Find the measured Ki of Cc1cc(SCC2CC2)c(N)c(=O)n1CC(=O)NCc1ccc2[nH]cnc2c1 with human α-thrombin (Homo sapiens) as test system.
> 20 nM

Next:
Quote human α-thrombin (Homo sapiens) Ki for entry Cc1cc2[nH]cnc2cc1CNC(=O)Cn1c(C)cnc(NCC2(c3ccccn3)CC2)c1=O [drawing 20] .
< 20 nM

Write down measured Ki (human α-thrombin (Homo sapiens)) for this molecule. Cc1cnc(NCCc2ccccc2)c(=O)n1CC(=O)NCc1cc2c(Cl)c[nH]c2cn1
< 20 nM

Enter Ki (test system human α-thrombin (Homo sapiens)) for Cc1noc2ccc(CNC(=O)Cn3c(C)cnc(NCCc4ccccn4)c3=O)cc12
> 20 nM

Output reported Ki of the molecule Cc1cc2[nH]cnc2cc1CNC(=O)Cn1c(C)cnc(NCCc2ccccn2)c1=O [drawing 19] on human α-thrombin (Homo sapiens).
> 20 nM
